Would you kindly list INH for each of these molecules?
System: Bacillus subtilis
assay info: Inhibition of cell division in penicillin-susceptible Bacillus subtilis ATCC 9372 assessed as lowest concentration required to filamentation after 5 hrs by phase-contrast light microscopy analysis
Type: functional
# value in µg/mL; strip the unit string

What measured INH goes with NC(=O)c1cccc(OCCCn2cncn2)c1 ?
16

Looking for the measured INH of NC(=O)c1cccc(OCCCSc2nc3ccccc3[nH]2)c1 , can you help?
4

Please give the measured INH for this molecule: CCOCCCCCOc1cccc(C(N)=O)c1
64

Please report the recorded INH for NC(=O)c1cccc(OCCCCCCl)c1 .
32

* * *

Tested on: Staphylococcus aureus
assay info: Inhibition of cell division in penicillin-susceptible Staphylococcus aureus ATCC 25923 assessed as lowest concentration required to ballooning after 5 hrs by phase-contrast light microscopy analysis
Format: functional
Give INH for every item shown.
// return numeric value only (unit: µg/mL, not printed)

Form field - read-out: INH; system: Staphylococcus aureus; submitted item: NC(=O)c1cccc(OCCCCOc2ccc([N+](=O)[O-])cc2)c1
512

Form field - read-out: INH; system: Staphylococcus aureus; submitted item: NC(=O)c1cccc(OCCCn2cncn2)c1
1024

Form: Entry = NC(=O)c1cccc(OCCCCCCBr)c1 | System = Staphylococcus aureus | INH = ____
64
